System: human melanoma cells A375 (with a mutated B-RAF)
Assay: In vitro cell proliferation assay, A375
Assay type: cell-based
Settings: A-375, 72 hours, cellular ATP monitoring
Task for the reader: assign each of the following compounds its reported IC50.
Answers are plain numbers, in µM.

Guide cases for IC50, answers given:
>>> data_value("CC(C)(C)c1ccc(NC(=O)Nc2cccc(-c3nn4c(c3-c3ccncc3)SCC4)c2)cc1")
2.16
>>> data_value("O=S(=O)(Nc1cccc(-c2nn3c(c2-c2ccncc2)SCCC3)c1)c1ccco1")
9.28

// each listed compound needs a value for IC50
1. O=S(=O)(Nc1cccc(-c2nn3c(c2-c2ccncc2)SCCC3)c1)c1cccc(F)c1
2. O=C(Cc1ccc(C(F)(F)F)cc1)Nc1cccc(-c2nn3c(c2-c2ccncc2)SCCC3)c1
3. O=S(=O)(Nc1ccc(F)c(-c2nn3c(c2-c2ccncc2)SCC3)c1F)c1cc(F)ccc1F
4. Oc1cccc(-c2nn3ccsc3c2-c2ccncc2)c1

Reply:
7.51
3.88
0.29
1.17

====

Test system: human melanoma cells A375 (with a mutated B-RAF)
Assay: In vitro cell proliferation assay, A375
Assay type: cell-based
Conditions: A-375, 72 hours, cellular ATP monitoring
Task for the reader: assign each of the following compounds its reported pIC50.
Answers are plain numbers, as −log10 of the molar value.

Guide cases for pIC50, answers given:
>>> data_value("O=C(Nc1ccc(C(F)(F)F)cc1)Nc1cccc(-c2nn3c(c2-c2ccncc2)SCCC3)c1 [compound 3]")
6.04
>>> data_value("O=S(=O)(Nc1cccc(-c2nn3c(c2-c2ccncc2)SCCC3)c1)c1ccsc1 [compound 14]")
5.15
>>> data_value("O=C(Nc1ccc(C(F)(F)F)cc1)Nc1cccc(-c2nn3c(c2-c2ccncc2)SCC3)c1 [compound 5]")
6.37
>>> data_value("O=C(Nc1ccc(C(F)(F)F)cc1)Nc1cccc(-c2nn3c(c2-c2ccncc2)[S+]([O-])CC3)c1 (centres unmarked) [compound 19]")
5.11

// each listed compound needs a value for pIC50
1. Oc1cccc(-c2nn3c(c2-c2ccncc2)SCCC3)c1 [compound 8]
2. CC(C)(C)c1ccc(NC(=O)c2cccc(-c3nn4c(c3-c3ccncc3)SCC4)c2)cc1 [compound 15]
3. Oc1cccc(-c2nn3c(c2-c2ccncc2)SCC3)c1 [compound 7]
4. O=C(Nc1ccc(C(F)(F)F)cc1)Nc1cccc(-c2nn3ccsc3c2-c2ccncc2)c1 [compound 22]
5. Cc1ccc(NC(=O)Nc2cccc(-c3nn4c(c3-c3ccncc3)SCCC4)c2)cc1 [compound 2]
6. O=S1(=O)CCn2nc(-c3cccc(O)c3)c(-c3ccncc3)c21 [compound 10]
7. NC(=O)c1csc2c(-c3ccncc3)c(-c3cccc(NS(=O)(=O)c4cc(F)ccc4F)c3)nn12 [compound 17]
8. O=S(=O)(Nc1cccc(-c2nn3c(c2-c2ccncc2)SCCC3)c1)c1cc(F)ccc1F [compound 9]

Reply:
1: 5.82; 2: 6.17; 3: 6.02; 4: 5.99; 5: 5.43; 6: 5.70; 7: 5.87; 8: 5.89

// each listed compound needs a value for pIC50
1. O=C(Nc1ccc(Cl)cc1)Nc1cccc(-c2nn3c(c2-c2ccncc2)SCC3)c1 [compound 6]
2. O=C(Nc1ccc(C(F)(F)F)cc1)c1cccc(-c2nn3c(c2-c2ccncc2)SCC3)c1 [compound 24]
3. O=S(=O)(Nc1cccc(-c2nn3ccsc3c2-c2ccncc2)c1)c1cc(F)ccc1F [compound 21]
4. O=C(Nc1ccc(Cl)cc1)Nc1cccc(-c2nn3c(c2-c2ccncc2)SCCC3)c1 [compound 1]
5. O=S(=O)(Nc1cccc(-c2nn3c(c2-c2ccncc2)SCC3)c1)c1cc(F)ccc1F [compound 11]

Reply:
5.63
5.91
5.50
5.61
6.18

Data origin: patent US8524707B2
